System: OVCAR-3 ovarian
Experiment: NCI tumour cell line growth inhibition, 48 h
As shown below, each of these compounds has a reported TGI value.
measured quantity: TGI

INSERT INTO results (compound, target_desc, measured_quantity, result) VALUES
  ('N#C/C(=C/c1ccsc1)C(=O)c1ccccc1', 'OVCAR-3 ovarian', 'TGI', '> 100 µM'),
  ('Cn1cc2ccccc2c1-c1nc(N)nc(F)n1', 'OVCAR-3 ovarian', 'TGI', '> 100 µM'),
  ('N#CC1(Cc2ccc(N)cc2)c2ccccc2C=CN1C(=O)c1ccccc1 (stereo unspecified)', 'OVCAR-3 ovarian', 'TGI', '> 100 µM'),
  ('COc1cc(OC)cc(-c2ccc(-c3ccc(C(=N)N)o3)o2)c1', 'OVCAR-3 ovarian', 'TGI', '11.3 µM'),
  ('CCOC(=O)C1Cc2[nH]c3ccccc3c2C(C)C1C (stereo unspecified)', 'OVCAR-3 ovarian', 'TGI', '30.1 µM'),
  ('COc1cnc2cc(C(=O)O)c3c([N+](=O)[O-])cccc3c2c1', 'OVCAR-3 ovarian', 'TGI', '> 100 µM'),
  ('CN1C(=O)N(c2ccccc2)C2(CCN(CC3COc4ccccc4O3)CC2)C1=O (stereo unspecified)', 'OVCAR-3 ovarian', 'TGI', '89.2 µM'),
  ('C/C(CCOC1CCCCO1)=C(\C)[Si](C)(C)C (stereo unspecified)', 'OVCAR-3 ovarian', 'TGI', '> 100 µM'),
  ('O=C(/C=C/c1ccc(O)c([N+](=O)[O-])c1)CC(=O)/C=C/c1ccc(O)c([N+](=O)[O-])c1', 'OVCAR-3 ovarian', 'TGI', '> 100 µM'),
  ('COC(=O)c1cc2c3ccccc3[nH]c2c2ncccc12', 'OVCAR-3 ovarian', 'TGI', '> 100 µM'),
  ('O=C(CN1CCOCC1)Nc1ccc(Cn2nnc3c2C(=O)c2nnn(Cc4ccc(NC(=O)CN5CCOCC5)cc4)c2C3=O)cc1', 'OVCAR-3 ovarian', 'TGI', '0.836 µM'),
  ('COC(=O)C(/C(=N/NC(N)=O)C(=O)Nc1ccc(C)cc1)c1nc2ccc([N+](=O)[O-])cc2[nH]c1=O (stereo unspecified)', 'OVCAR-3 ovarian', 'TGI', '> 100 µM'),
  ('O=C(Nc1ccc(Br)cc1)c1c(-c2ccccc2)c2ccc(O)cc2oc1=O', 'OVCAR-3 ovarian', 'TGI', '> 10 µM'),
  ('CC1=C2C(=O)NN=C2CCN1c1ccc(Br)cc1', 'OVCAR-3 ovarian', 'TGI', '> 100 µM'),
  ('Cc1ccc(S(=O)(=O)C(CC(=O)N2CCCC2)C(=O)c2ccccc2)cc1 (stereo unspecified)', 'OVCAR-3 ovarian', 'TGI', '> 100 µM'),
  ('COc1cc(/C=C/c2cc(/C=C/c3ccc(O)c(OC)c3)n(-c3ccccc3)n2)ccc1O', 'OVCAR-3 ovarian', 'TGI', '0.938 µM'),
  ('CCOc1cc(NC(C)=O)ccc1C(=O)NNC(=O)c1ccccc1OC(C)=O', 'OVCAR-3 ovarian', 'TGI', '> 100 µM'),
  ('CN(C)CCCOC(=O)C(c1ccccc1)C1(O)CCSCC1 (stereo unspecified)', 'OVCAR-3 ovarian', 'TGI', '> 100 µM'),
  ('Nc1ccn(C2O[C@H](CO)[C@@H](O)[C@@H]2O)c(=O)n1 (stereo partly specified)', 'OVCAR-3 ovarian', 'TGI', '> 100 µM'),
  ('O=C(N/N=C/c1ccccc1O)c1cccc([N+](=O)[O-])c1', 'OVCAR-3 ovarian', 'TGI', '6.73 µM'),
  ('COC(=O)C1(C(=O)OC)CC2=C(S(=O)(=O)c3ccccc3)C[C@H](S(=O)(=O)c3ccccc3)[C@H]2C1', 'OVCAR-3 ovarian', 'TGI', '> 100 µM');
